Taken from paper PMC4900672.

- ASSAY_SYSTEM: T1, TFAM HMG Box B (UniProt Q00059 155-219)
- T1 sequence: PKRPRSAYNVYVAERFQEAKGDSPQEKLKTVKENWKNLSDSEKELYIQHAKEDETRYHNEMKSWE
- TEST_DETAILS: fluorescence anisotropy; FA: 50 mM HEPES-Na pH 7.4, 150 mM NaCl, 1 mM DTT, 20 C, 500 pM FM-DNA, Hill fit; EMSA: 5 nM FM-DNA, 8% PAGE, 0.33x TBE
- APPLIED_CONDITIONS: protein: recombinant; label: 5'-6FAM; G-quadruplex possible (previous studies)
OBSERVED_PROPERTY: Kd (nM)
One number for each entry, in nM.

Ask: Provide Kd value for the following binder: GGGGACGACGTCGTGGGGGGG (XNA, phosphorothioate (positions in Fig 1A)) [CpG-A (PS)]
Result: 231
